test target: T1, human coagulation factor XI (FXI) (human, UniProt P03951 19-625)
T1 construct: mature; also called plasma FXI; human FXI
method description: SPR (Biacore), FXI immobilized on CM5 chip, mAb as analyte
reported metric: pKd
// pKd here means minus log10 of the molar concentration (mol/L)

Consider the following illustrative entries.
[[record]]
binder = "composite human mAb VH2/Vκ3 (antibody, V domains shown, Human IgG4 (S241P hinge mutant) heavy chain and human kappa light chain) VH: QVQLVQSGSELKKPGASVKLSCKASGYTFTRYWMHWVKQAPGQGLEWIGNIYPDSDSTNYDEKFRTRATLTADTSTSTAYMELSSLRSEDTAVYYCTRMGFYAMDYWGQGTTVTVSS VL: DIVMTQSPSSLSASVGDRVTITCKASENVVTYVSWFQQKPGQAPKLLIYGASNRYTGVPDRFSGSGSGTDFTLTISSLQAEDVADYHCGQSYSYPLTFGQGTKLEIKR"
readout_value = 9.29

[[record]]
binder = "composite human mAb VH2/Vκ2 (antibody, V domains shown, Human IgG4 (S241P hinge mutant) heavy chain and human kappa light chain) VH: QVQLVQSGSELKKPGASVKLSCKASGYTFTRYWMHWVKQAPGQGLEWIGNIYPDSDSTNYDEKFRTRATLTADTSTSTAYMELSSLRSEDTAVYYCTRMGFYAMDYWGQGTTVTVSS VL: NIVMTQSPSSLSASVGDRVTITCKASENVVTYVSWFQQKPGQAPKLLIYGASNRYTGVPDRFSGSGSATDFTLTISSLQAEDVADYHCGQSYSYPLTFGQGTKLEIKR"
readout_value = 9.06

[[record]]
binder = "composite human mAb VH3/Vκ4 (antibody, V domains shown, Human IgG4 (S241P hinge mutant) heavy chain and human kappa light chain) VH: QVQLVQSGSELKKPGASVKLSCKASGYTFTRYWMHWVRQAPGQGLEWIGNIYPDSDSTNYDEKFRTRVTLTADTSTSTAYMELSSLRSEDTAVYYCTRMGFYAMDYWGQGTTVTVSS VL: DIVMTQSPSSLSASVGDRVTITCKASENVVTYVSWFQQKPGQAPKLLIYGASNRYTGVPDRFSGSGSGTDFTLTISSLQAEDVATYHCGQSYSYPLTFGQGTKLEIKR"
readout_value = 9.38

[[record]]
binder = "composite human mAb VH3/Vκ2 (antibody, V domains shown, Human IgG4 (S241P hinge mutant) heavy chain and human kappa light chain) VH: QVQLVQSGSELKKPGASVKLSCKASGYTFTRYWMHWVRQAPGQGLEWIGNIYPDSDSTNYDEKFRTRVTLTADTSTSTAYMELSSLRSEDTAVYYCTRMGFYAMDYWGQGTTVTVSS VL: NIVMTQSPSSLSASVGDRVTITCKASENVVTYVSWFQQKPGQAPKLLIYGASNRYTGVPDRFSGSGSATDFTLTISSLQAEDVADYHCGQSYSYPLTFGQGTKLEIKR"
readout_value = 10.10


Req: Consider the binder composite human mAb VH2/Vκ4 (antibody, V domains shown, Human IgG4 (S241P hinge mutant) heavy chain and human kappa light chain) VH: QVQLVQSGSELKKPGASVKLSCKASGYTFTRYWMHWVKQAPGQGLEWIGNIYPDSDSTNYDEKFRTRATLTADTSTSTAYMELSSLRSEDTAVYYCTRMGFYAMDYWGQGTTVTVSS VL: DIVMTQSPSSLSASVGDRVTITCKASENVVTYVSWFQQKPGQAPKLLIYGASNRYTGVPDRFSGSGSGTDFTLTISSLQAEDVATYHCGQSYSYPLTFGQGTKLEIKR and give its measured pKd.
Resp: 10.21

Req: Consider the binder composite human mAb VH1/Vκ3 (antibody, V domains shown, Human IgG4 (S241P hinge mutant) heavy chain and human kappa light chain) VH: QVQLVQSGSELKKPGASVKLSCKASGYTFTRYWMHWVKQAHGQGLEWIGNIYPDSDSTNYDEKFRTRATLTADTSTSTAYMHLSSLTSEDSAVYYCTRMGFYAMDYWGQGTSVTVSS VL: DIVMTQSPSSLSASVGDRVTITCKASENVVTYVSWFQQKPGQAPKLLIYGASNRYTGVPDRFSGSGSGTDFTLTISSLQAEDVADYHCGQSYSYPLTFGQGTKLEIKR and give its measured pKd.
Resp: 9.77

Req: Consider the binder composite human mAb VH2/Vκ1 (antibody, V domains shown, Human IgG4 (S241P hinge mutant) heavy chain and human kappa light chain) VH: QVQLVQSGSELKKPGASVKLSCKASGYTFTRYWMHWVKQAPGQGLEWIGNIYPDSDSTNYDEKFRTRATLTADTSTSTAYMELSSLRSEDTAVYYCTRMGFYAMDYWGQGTTVTVSS VL: NIVMTQSPSSLSASVGDRVTITCKASENVVTYVSWFQQKPGQAPKLLIYGASNRYTGVPDRFTGSGSATDFTLTISSLQAEDVADYHCGQSYSYPLTFGQGTKLEIKR and give its measured pKd.
Resp: 9.62

Req: Consider the binder composite human mAb VH3/Vκ1 (antibody, V domains shown, Human IgG4 (S241P hinge mutant) heavy chain and human kappa light chain) VH: QVQLVQSGSELKKPGASVKLSCKASGYTFTRYWMHWVRQAPGQGLEWIGNIYPDSDSTNYDEKFRTRVTLTADTSTSTAYMELSSLRSEDTAVYYCTRMGFYAMDYWGQGTTVTVSS VL: NIVMTQSPSSLSASVGDRVTITCKASENVVTYVSWFQQKPGQAPKLLIYGASNRYTGVPDRFTGSGSATDFTLTISSLQAEDVADYHCGQSYSYPLTFGQGTKLEIKR and give its measured pKd.
Resp: 9.89

Req: Consider the binder composite human mAb VH1/Vκ2 (antibody, V domains shown, Human IgG4 (S241P hinge mutant) heavy chain and human kappa light chain) VH: QVQLVQSGSELKKPGASVKLSCKASGYTFTRYWMHWVKQAHGQGLEWIGNIYPDSDSTNYDEKFRTRATLTADTSTSTAYMHLSSLTSEDSAVYYCTRMGFYAMDYWGQGTSVTVSS VL: NIVMTQSPSSLSASVGDRVTITCKASENVVTYVSWFQQKPGQAPKLLIYGASNRYTGVPDRFSGSGSATDFTLTISSLQAEDVADYHCGQSYSYPLTFGQGTKLEIKR and give its measured pKd.
Resp: 9.60

Req: Consider the binder composite human mAb VH3/Vκ3 (antibody, V domains shown, Human IgG4 (S241P hinge mutant) heavy chain and human kappa light chain) VH: QVQLVQSGSELKKPGASVKLSCKASGYTFTRYWMHWVRQAPGQGLEWIGNIYPDSDSTNYDEKFRTRVTLTADTSTSTAYMELSSLRSEDTAVYYCTRMGFYAMDYWGQGTTVTVSS VL: DIVMTQSPSSLSASVGDRVTITCKASENVVTYVSWFQQKPGQAPKLLIYGASNRYTGVPDRFSGSGSGTDFTLTISSLQAEDVADYHCGQSYSYPLTFGQGTKLEIKR and give its measured pKd.
Resp: 10.09

Req: Consider the binder composite human mAb VH1/Vκ1 (antibody, V domains shown, Human IgG4 (S241P hinge mutant) heavy chain and human kappa light chain) VH: QVQLVQSGSELKKPGASVKLSCKASGYTFTRYWMHWVKQAHGQGLEWIGNIYPDSDSTNYDEKFRTRATLTADTSTSTAYMHLSSLTSEDSAVYYCTRMGFYAMDYWGQGTSVTVSS VL: NIVMTQSPSSLSASVGDRVTITCKASENVVTYVSWFQQKPGQAPKLLIYGASNRYTGVPDRFTGSGSATDFTLTISSLQAEDVADYHCGQSYSYPLTFGQGTKLEIKR and give its measured pKd.
Resp: 9.92
